B1: SPOPL (parent)
chain: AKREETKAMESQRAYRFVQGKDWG

# Variants of: B1
# Procedure details: protein stability index of a GFP-peptide fusion (GPS, HEK-293T) (PSI 1-6); higher = more stable;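 note: lentivirally expressed fusions sorted by FACS into six bins by GFP to DsRed ratio, PSI derived from sequencing read proportions per bin multiplied by bin number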
# Experimental setup: c terminus: a fixed tail appended
Readout type: protein stability index
// print number alone

Use the examples below as a reference point.
| Variant id | Reported result |
| --- | --- |
| E4H | 2.5 |
| D22K | 3.77 |
| R3P | 2.67 |
| Q12R | 2.61 |
| G24W | 2.27 |
| R3I | 3.36 |

Ask | Give the measured protein stability index of `D22E` .
Reply | 3.17

Ask | Give the measured protein stability index of `S11P` .
Reply | 2.72

Ask | Give the measured protein stability index of `K2N` .
Reply | 3.41

Ask | Give the measured protein stability index of `F17G` .
Reply | 4.68

Ask | Give the measured protein stability index of `R3N` .
Reply | 2.91

Ask | Give the measured protein stability index of `F17L` .
Reply | 3.67

Ask | Give the measured protein stability index of `G24P` .
Reply | 2.45

Ask | Give the measured protein stability index of `D22M` .
Reply | 2.95
